assay: physchem; details: toluene
EXPERIMENTAL_READOUT: remaining at 17 h (%)
The reply should contain only the number, in %.

[Q] Annotate the molecule CCOC(C)OC1=C(C)OC(C)C1=O (stereo not shown) with its measured remaining at 17 h.
[A] 95

* * *

assay: physchem; conditions: toluene
EXPERIMENTAL_READOUT: remaining at 137 h (%)
The reply should contain only the number, in %.

[Q] Annotate the compound CCOC(C)OC1=C(C)OC(C)C1=O (stereo not shown) with its measured remaining at 137 h.
[A] 38
